- Tested on: human liver microsomes (HLMs)
- assay_summary: Kinetic analysis of MH metabolism in HLMs
- Format: in vitro ADME
- measurement_context: HLMs 0.5 mg/mL, MH 0.5–100 µM, 30 min, 37°C
property_label: Km (µM)

INSERT INTO measurements (molecule, property_label, unit, measurement) VALUES
  ('COc1ccc2ccc(=O)oc2c1C[C@H](O)C(C)(C)O [MH, Meranzin hydrate]', 'Km', 'µM', 10.3);

---

- tgt: CYP2D6 (Homo sapiens, UniProt P10635)
- Construct: tissue Cypex Ltd. (U.K.); host or cells: pooled human liver microsomes, ten donors
- Sequence (P10635 whole entry): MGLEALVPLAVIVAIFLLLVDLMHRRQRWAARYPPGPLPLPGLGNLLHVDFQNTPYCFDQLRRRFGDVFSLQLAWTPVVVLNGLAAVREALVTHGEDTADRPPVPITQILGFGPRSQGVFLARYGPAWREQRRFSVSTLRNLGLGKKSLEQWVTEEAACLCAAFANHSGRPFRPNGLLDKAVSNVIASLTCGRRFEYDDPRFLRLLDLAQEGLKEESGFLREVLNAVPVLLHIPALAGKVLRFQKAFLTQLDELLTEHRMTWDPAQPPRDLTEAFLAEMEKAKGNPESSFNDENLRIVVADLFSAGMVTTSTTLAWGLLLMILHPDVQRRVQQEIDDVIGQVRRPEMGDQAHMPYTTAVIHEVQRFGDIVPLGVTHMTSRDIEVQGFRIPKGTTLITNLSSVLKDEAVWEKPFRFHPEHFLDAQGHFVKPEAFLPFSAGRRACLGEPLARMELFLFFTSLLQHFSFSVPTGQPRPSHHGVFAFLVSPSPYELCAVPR
- assay_summary: Inhibition of CYP2D6 (metoprolol α-hydroxylation) in HLMs
- Type: in vitro ADME
- measurement_context: HLMs, metoprolol 7.5 µM; read-out: IC50
- Protocol: The samples were vortexed for 5 min. All incubation conditions were the same as mentioned above. P<0.05 denoted significance in all cases.
property_label: IC50

INSERT INTO assay_data (molecule, tgt, measurement) VALUES
  ('COc1ccc2ccc(=O)oc2c1C[C@H](O)C(C)(C)O [MH, Meranzin hydrate]', 'CYP2D6 (Homo sapiens, UniProt P10635)', '> 100 µM');

---

- tgt: CYP3A4 (Homo sapiens, UniProt P08684)
- Construct: tissue Cypex Ltd. (U.K.); host or cells: pooled human liver microsomes, ten donors
- Sequence (P08684 whole entry): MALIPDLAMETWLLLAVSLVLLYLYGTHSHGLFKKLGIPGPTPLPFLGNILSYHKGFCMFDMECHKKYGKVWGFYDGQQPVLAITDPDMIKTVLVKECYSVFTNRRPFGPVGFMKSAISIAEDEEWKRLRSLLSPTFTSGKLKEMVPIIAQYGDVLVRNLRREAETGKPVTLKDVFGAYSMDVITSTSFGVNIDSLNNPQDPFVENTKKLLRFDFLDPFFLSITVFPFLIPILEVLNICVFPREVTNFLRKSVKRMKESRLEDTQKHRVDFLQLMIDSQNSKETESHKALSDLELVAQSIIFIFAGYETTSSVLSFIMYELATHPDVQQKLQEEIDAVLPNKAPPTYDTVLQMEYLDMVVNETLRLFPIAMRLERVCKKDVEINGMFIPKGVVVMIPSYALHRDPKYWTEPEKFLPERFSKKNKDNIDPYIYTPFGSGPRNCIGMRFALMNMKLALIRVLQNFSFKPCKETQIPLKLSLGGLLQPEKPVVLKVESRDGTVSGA
- assay_summary: Inhibition of CYP3A4 (midazolam 1-hydroxylation) in HLMs
- Format: in vitro ADME
- measurement_context: CYP3A4; classification of Kong et al [23]; read-out: inhibitor potency class by IC50
property_label: IC50

INSERT INTO results (compound, measurement) VALUES
  ('COc1ccc2ccc(=O)oc2c1C[C@H](O)C(C)(C)O [MH, Meranzin hydrate]', '> 50 µM');

---

- tgt: CYP1A2 (Homo sapiens, UniProt P05177)
- assay_summary: Inhibition of CYP1A2 (phenacetin O-deethylation) in HLMs
- Format: in vitro ADME
- Design: tissue Cypex Ltd. (U.K.); host or cells: pooled human liver microsomes, ten donors
- measurement_context: CYP1A2; classification of Kong et al [23]; read-out: inhibitor potency class by IC50
property_label: IC50

INSERT INTO assay_data (compound, measurement) VALUES
  ('COc1ccc2ccc(=O)oc2c1C[C@H](O)C(C)(C)O [MH, Meranzin hydrate]', '< 10 µM');

---

- tgt: UniProt P05177
- Sequence (P05177 1-516): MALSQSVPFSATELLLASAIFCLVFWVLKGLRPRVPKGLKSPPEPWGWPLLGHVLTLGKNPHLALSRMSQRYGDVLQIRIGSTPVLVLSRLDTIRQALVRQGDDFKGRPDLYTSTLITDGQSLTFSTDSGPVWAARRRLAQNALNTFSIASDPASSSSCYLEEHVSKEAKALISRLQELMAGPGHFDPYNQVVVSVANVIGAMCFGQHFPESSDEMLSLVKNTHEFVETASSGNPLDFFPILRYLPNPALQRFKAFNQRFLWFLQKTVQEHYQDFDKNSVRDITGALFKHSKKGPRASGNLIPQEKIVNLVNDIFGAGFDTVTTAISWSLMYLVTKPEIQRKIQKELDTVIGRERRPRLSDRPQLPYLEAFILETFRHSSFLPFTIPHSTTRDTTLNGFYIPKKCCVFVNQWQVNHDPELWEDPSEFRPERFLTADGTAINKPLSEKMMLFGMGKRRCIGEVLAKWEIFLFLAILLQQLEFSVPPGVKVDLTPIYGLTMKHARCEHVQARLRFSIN
- assay_summary: Inhibition of CYP1A2 (phenacetin O-deethylation) in HLMs
- Type: in vitro ADME
- Parameters: tissue Cypex Ltd. (U.K.); host or cells: pooled human liver microsomes, ten donors
- measurement_context: HLMs, phenacetin 3 to 100 µM, MH 0 to 100 µM
pKi: −log10 of the molar value.
property_label: pKi

INSERT INTO results (molecule, property_label, measurement) VALUES
  ('COc1ccc2ccc(=O)oc2c1C[C@H](O)C(C)(C)O [MH, Meranzin hydrate]', 'pKi', 5.34);

---

- tgt: CYP2C9 (Homo sapiens)
- Construct: tissue Cypex Ltd. (U.K.); host or cells: pooled human liver microsomes, ten donors
- Sequence (P11712 whole entry): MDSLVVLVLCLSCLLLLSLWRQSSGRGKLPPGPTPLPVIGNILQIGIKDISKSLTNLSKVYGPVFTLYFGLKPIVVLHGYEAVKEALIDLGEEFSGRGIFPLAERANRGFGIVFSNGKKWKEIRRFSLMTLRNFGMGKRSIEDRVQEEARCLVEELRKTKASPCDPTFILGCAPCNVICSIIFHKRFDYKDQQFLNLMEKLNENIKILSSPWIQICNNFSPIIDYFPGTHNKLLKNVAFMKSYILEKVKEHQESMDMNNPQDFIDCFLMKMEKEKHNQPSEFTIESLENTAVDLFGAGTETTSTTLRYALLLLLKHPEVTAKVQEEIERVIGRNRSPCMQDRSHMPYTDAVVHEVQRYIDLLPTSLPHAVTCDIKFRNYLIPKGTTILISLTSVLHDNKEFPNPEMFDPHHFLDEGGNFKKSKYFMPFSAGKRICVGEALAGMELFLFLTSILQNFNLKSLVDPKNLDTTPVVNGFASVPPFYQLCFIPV
- assay_summary: Inhibition of CYP2C9 (tolbutamide 4-hydroxylation) in HLMs
- Type: in vitro ADME
- measurement_context: CYP2C9; classification of Kong et al [23]; read-out: inhibitor potency class by IC50
- Description: The samples were vortexed for 5 min. All incubation conditions were the same as mentioned above. P<0.05 denoted significance in all cases.
property_label: IC50

INSERT INTO results (compound, property_label, measurement) VALUES
  ('COc1ccc2ccc(=O)oc2c1C[C@H](O)C(C)(C)O [MH, Meranzin hydrate]', 'IC50', '> 50 µM');

---

- tgt: CYP2D6 (Homo sapiens, UniProt P10635)
- Construct: tissue Cypex Ltd. (U.K.); host or cells: pooled human liver microsomes, ten donors
- assay_summary: Inhibition of CYP2D6 (metoprolol α-hydroxylation) in HLMs
- Format: in vitro ADME
- measurement_context: CYP2D6; classification of Kong et al [23]; read-out: inhibitor potency class by IC50
property_label: IC50

INSERT INTO results (compound, property_label, measurement) VALUES
  ('COc1ccc2ccc(=O)oc2c1C[C@H](O)C(C)(C)O [MH, Meranzin hydrate]', 'IC50', '> 50 µM');

---

- tgt: CYP2C19 (Homo sapiens, UniProt P33261)
- Sequence (P33261 whole entry): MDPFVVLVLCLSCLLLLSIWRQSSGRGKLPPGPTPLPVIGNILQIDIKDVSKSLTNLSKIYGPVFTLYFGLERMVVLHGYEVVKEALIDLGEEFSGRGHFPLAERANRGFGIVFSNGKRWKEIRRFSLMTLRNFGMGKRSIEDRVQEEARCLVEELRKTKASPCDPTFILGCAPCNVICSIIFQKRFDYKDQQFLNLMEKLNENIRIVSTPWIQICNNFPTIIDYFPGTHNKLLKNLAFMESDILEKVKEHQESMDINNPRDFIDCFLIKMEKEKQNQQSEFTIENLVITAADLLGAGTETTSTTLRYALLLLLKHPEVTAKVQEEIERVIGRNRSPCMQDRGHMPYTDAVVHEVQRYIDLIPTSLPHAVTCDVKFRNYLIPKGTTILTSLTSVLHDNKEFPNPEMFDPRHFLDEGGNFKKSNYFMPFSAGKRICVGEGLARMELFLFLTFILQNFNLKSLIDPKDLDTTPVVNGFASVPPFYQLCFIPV
- assay_summary: Kinetic analysis of MH metabolism by recombinant CYP2C19
- Type: in vitro ADME
- Set-up: purchased Cypex Ltd. (U.K.)
- measurement_context: recombinant CYP2C19 10 pmol
property_label: Km (µM)

INSERT INTO results (molecule, measurement) VALUES
  ('COc1ccc2ccc(=O)oc2c1C[C@H](O)C(C)(C)O [MH, Meranzin hydrate]', 25.9);

---

- tgt: CYP3A4 (Homo sapiens)
- Construct: tissue Cypex Ltd. (U.K.); host or cells: pooled human liver microsomes, ten donors
- assay_summary: Inhibition of CYP3A4 (midazolam 1-hydroxylation) in HLMs
- Type: in vitro ADME
- measurement_context: HLMs, midazolam 5 µM; read-out: IC50
property_label: IC50

INSERT INTO measurements (molecule, tgt, measurement) VALUES
  ('COc1ccc2ccc(=O)oc2c1C[C@H](O)C(C)(C)O [MH, Meranzin hydrate]', 'CYP3A4 (Homo sapiens)', '> 100 µM');

---

- tgt: CYP2C19 (Homo sapiens, UniProt P33261)
- assay_summary: Inhibition of CYP2C19 (S-Mephenytoin 4-hydroxylation) in HLMs
- Format: in vitro ADME
- Parameters: tissue Cypex Ltd. (U.K.); host or cells: pooled human liver microsomes, ten donors
- measurement_context: HLMs, S-mephenytoin 15 to 120 µM, MH 0 to 100 µM
pKi: −log10 of the molar value.
property_label: pKi

INSERT INTO results (compound, property_label, measurement) VALUES
  ('COc1ccc2ccc(=O)oc2c1C[C@H](O)C(C)(C)O [MH, Meranzin hydrate]', 'pKi', 4.37);
